The following compounds are listed with their measured growth values.
# System: COLO 205 colon
# Measurement Notes: NCI-60 one-dose screen, 48 h (100 = growth as untreated, 0 = no growth, -100 = all killed)
# Setup Conditions: 10 µM unless noted
# Method: Cells are grown in 96 well plates and exposed to the test compound for 48 hours. Compounds are tested at a single concentration, which is 10^-5 M for most compounds. The reported endpoint is percent growth (GI% or GIPRCNT), where numbers from 0 - 100% represent growth inhibition, and numbers from -100% - 0 represent cell death. For example, a value of 40 represents 60% growth inhibition. A value of 0 means no net growth occurred over the course of the experiment. […]
This is part of a sample that, as a whole, favours compounds with a hit. Of some 83,000 tested, about 20% had one in any assay. The source made the active and inactive calls. The calls were made as follows: active = growth percent below 10; inactive = the rest.

compound=Cc1ccc(CNS(=O)(=O)/N=C2\NC(=O)NC2=C(Cl)Cl)cc1 target_system="COLO 205 colon" assay_readout=growth assay_value="113% (inactive)"
compound=C=CCSc1ccc2c(c1)C(N1CCNCC1)=Nc1ccccc1O2 target_system="COLO 205 colon" assay_readout=growth assay_value="7.69% [8.25 µM] (active)"

(Q) Given Cc1cccc2sc(/N=C(\N)C(Cl)(Cl)Cl)nc12 , respond with its growth.
(A) 110% (inactive)

(Q) Fill in reported growth for this entry: O=[N+]([O-])c1ccc(O)c2ncccc12
(A) 46.5% (inactive)

(Q) Using the record for N#Cc1c(-c2ccc(Cl)cc2)nc(SCc2ccccc2)nc1N1CCNCC1 , state its measured growth.
(A) -8% (active)

(Q) Report measured growth; entry is CN1CCc2c(sc3ncnc(N/N=C/c4ccc(Cl)c(Cl)c4)c23)C1
(A) 36.1% (inactive)

(Q) Recall and state the measured growth for COc1cc(/C=C/C(=O)c2ccc(C(F)(F)F)cc2)ccc1Oc1nc(NCCO)nc(N2CCOCC2)n1 .
(A) 108% (inactive)

(Q) Quick one: give measured growth for COc1ccc(/C=C/C(=O)c2ccc(NC(=O)CSc3nnc(-c4ccc5nc(-c6ccc(Cl)cc6)[nH]c5c4)o3)cc2)cc1
(A) 118% (inactive)

(Q) Give a short answer stating reported growth for O=C(CCN1C(=O)/C(=C/c2ccccc2F)SC1=S)N1CCOCC1 .
(A) 108% (inactive)

(Q) Annotate the compound COc1ccc(NC(=O)c2sc3nc(-c4cnccn4)cc(-c4cccs4)c3c2N)cc1 with its measured growth.
(A) 64.7% (inactive)

(Q) Specify measured growth for C#Cc1nc(C2=C(C)C(=N\O)/C(=N/O)C2)cs1 .
(A) 118% (inactive)

(Q) Report measured growth; entry is c1ccc2c(NCCCn3ccnc3)c3oc4ccccc4c3nc2c1
(A) -30.9% (active)

(Q) Give growth for COc1cc(/C=C/C(=O)c2ccc(C)cc2)ccc1Oc1nc(NCCO)nc(N2CCOCC2)n1
(A) 107% (inactive)

Taken from PubChem BioAssay (NCI).
